# target.system: Sentrin-specific protease 7 (Homo sapiens)
# Sequence (Q9BQF6 whole entry): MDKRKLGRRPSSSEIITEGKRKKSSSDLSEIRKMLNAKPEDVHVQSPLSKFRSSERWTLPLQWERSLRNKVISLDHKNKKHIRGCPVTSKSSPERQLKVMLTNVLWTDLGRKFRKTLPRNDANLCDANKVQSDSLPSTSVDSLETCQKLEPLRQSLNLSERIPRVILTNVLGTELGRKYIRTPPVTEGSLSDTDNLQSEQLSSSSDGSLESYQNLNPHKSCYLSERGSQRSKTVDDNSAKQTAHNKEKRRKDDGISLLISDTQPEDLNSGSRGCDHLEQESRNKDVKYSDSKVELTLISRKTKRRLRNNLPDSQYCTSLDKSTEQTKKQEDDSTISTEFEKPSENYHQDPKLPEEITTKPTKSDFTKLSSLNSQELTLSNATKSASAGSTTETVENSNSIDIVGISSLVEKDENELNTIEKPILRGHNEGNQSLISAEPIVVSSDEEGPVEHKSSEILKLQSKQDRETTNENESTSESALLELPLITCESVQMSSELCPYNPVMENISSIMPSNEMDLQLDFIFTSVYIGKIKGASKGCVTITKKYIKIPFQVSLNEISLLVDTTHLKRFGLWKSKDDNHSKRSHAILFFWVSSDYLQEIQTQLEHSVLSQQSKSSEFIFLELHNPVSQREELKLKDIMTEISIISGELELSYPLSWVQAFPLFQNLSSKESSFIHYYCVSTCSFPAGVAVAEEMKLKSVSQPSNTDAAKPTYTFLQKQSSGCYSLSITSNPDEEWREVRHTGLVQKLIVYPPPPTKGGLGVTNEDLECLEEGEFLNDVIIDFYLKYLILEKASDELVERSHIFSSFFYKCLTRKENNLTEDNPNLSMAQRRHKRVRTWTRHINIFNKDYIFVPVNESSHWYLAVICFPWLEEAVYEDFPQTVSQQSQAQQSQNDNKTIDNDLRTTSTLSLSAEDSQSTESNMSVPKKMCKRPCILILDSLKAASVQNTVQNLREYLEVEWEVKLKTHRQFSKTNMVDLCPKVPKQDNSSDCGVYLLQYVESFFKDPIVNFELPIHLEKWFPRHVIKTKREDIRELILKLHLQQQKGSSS
# assay.comment: inhibition of human SENP7 cleavage activity – biochemical, luminescence, SAR follow-up (AID 504497)
# Type: functional
Calls of active or inactive are those of the source.
The categories you may choose from are active, inactive

Prompt: Write down the call the test reported for this molecule. Item: COc1cccc(-c2noc(/C=C/c3ccccc3Cl)n2)c1
Response: active

Prompt: Field entry: COc1ccc(N/N=C/c2c[nH]c3ccccc23)cc1
Response: active

Prompt: Try the molecule CCCCc1ccc2nc(NC(=O)c3ccco3)sc2c1
Response: active

Prompt: Lookup CC1CCc2c(sc(NC(=O)c3ccc(Cn4cc(Br)cn4)o3)c2C(N)=O)C1 (centres undefined)
Response: inactive

====

# Tested on: H9c2;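 note: cell death induced by hydrogen peroxide oxidative stress; compound pretreatment for 60 min then peroxide exposure for 2 h; potency is for protecting the cells against peroxide damage rather than for killing them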;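 note: confirmatory concentration-response retest of ultra-high-throughput screening hits for modulation of myocardial damage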
# assay.comment: cells
# Format: functional, cell-based
# measurement.setup: Rattus norvegicus, H9c2, Myocardium
Active and inactive are the calls of the source.
Answer with one of the outcomes given here: active, inactive

Prompt: // return assay outcome for Oc1c(Br)cc(Br)cc1/C=N/Cc1ccccc1
Response: inactive

Prompt: Ok, now CC(OC(=O)Cc1nnc(O)c2ccccc12)C(=O)Nc1ccc(Cl)cn1 (stereo not given)
Response: active

Prompt: # iterate: COc1ccccc1-c1cc(NC(C)=O)c2ncc(-c3cccc(C(C)=O)c3)n2c1
Response: inactive

Prompt: Same again, this time with CCCn1c(=O)c(C(=O)NCCc2ccc(Cl)cc2)c(O)c2ccccc21
Response: inactive

Prompt: Now consider COc1cc(NC(=O)c2ccco2)c(OC)cc1NC(=O)c1cc(OC)c(OC)c(OC)c1 and answer again.
Response: active

====

Please respond with reported AC50 for every item in the list.
# target.system: Cytochrome P450 2C19 (Homo sapiens, UniProt P33261)
# Sequence (P33261 whole entry): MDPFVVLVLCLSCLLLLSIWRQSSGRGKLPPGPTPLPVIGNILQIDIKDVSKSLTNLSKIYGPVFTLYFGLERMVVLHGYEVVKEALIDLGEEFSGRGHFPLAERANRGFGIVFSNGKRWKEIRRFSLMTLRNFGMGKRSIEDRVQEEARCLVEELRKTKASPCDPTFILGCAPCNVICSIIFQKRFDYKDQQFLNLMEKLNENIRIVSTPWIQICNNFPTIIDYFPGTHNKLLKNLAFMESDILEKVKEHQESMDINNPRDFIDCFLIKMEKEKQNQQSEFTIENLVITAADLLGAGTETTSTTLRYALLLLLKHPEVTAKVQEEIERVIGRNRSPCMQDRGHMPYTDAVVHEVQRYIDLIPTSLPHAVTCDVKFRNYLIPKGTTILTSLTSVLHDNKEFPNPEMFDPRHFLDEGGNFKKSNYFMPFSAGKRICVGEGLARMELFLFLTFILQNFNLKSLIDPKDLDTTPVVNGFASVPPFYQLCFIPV
# assay.comment: Cytochrome panel assay with activity outcomes. Panel member name: p450-cyp2c19 Compounds with AC50 equal or less than 10 uM are considered active
# Assay type: functional
# measurement.setup: read-out: AC50

Prompt: Dear colleague, I am looking for the recorded AC50 of the following molecule: O=C(NCc1ccc2c(c1)OCO2)C1CC(=O)N(C2CCCC2)C1 (stereo not given)
Response: 35.5 µM (inconclusive)

Prompt: Now consider COCCNc1ccnc(-c2ccccc2C)n1 and answer again.
Response: 15.8 µM (inconclusive)

Prompt: Next up: CCc1ccc(-c2cc(C(=O)NCc3ccco3)c3ccccc3n2)s1
Response: 4.47 µM (inconclusive)

Prompt: Repeat with COc1ccc(/C=C2/SC(N/N=C3\CC4CCC3(C)C4(C)C)=NC2=O)cc1 (stereo not given)
Response: 20 µM (inconclusive)

Prompt: Now consider COC(=O)[C@@]1(Cc2ccc(F)cc2)[C@H]2c3cc(C(=O)N(C)C)n(Cc4cc(C)n(C)n4)c3C[C@H]2CN1C(=O)c1ccccc1 .
Response: 39.8 µM (inconclusive)

Prompt: Now the molecule COCCNC(=O)/C(C#N)=C/c1ccc(-c2ccc(OC)cc2[N+](=O)[O-])o1
Response: 3.55 µM (inconclusive)

Prompt: Further, for CC1CN(C(NC(=O)C(C)(C)C)C(Cl)(Cl)Cl)CC(C)O1 (stereo not given) ?
Response: 8.91 µM (inconclusive)

Prompt: Input Cc1ccc(-c2nc3ccccc3s2)cc1NC(=O)c1cc(-n2cnnc2)ccc1Cl
Response: 0.794 µM (inconclusive)

Prompt: Now the molecule CCN1CCN(c2nc(-c3ccccn3)nc3ccccc23)CC1
Response: 39.8 µM (inconclusive)

Prompt: Entry N[C@@H](Cn1cc(I)c(=O)n(Cc2ccc(C(=O)O)cc2)c1=O)C(=O)O please
Response: 39.8 µM (inconclusive)

Prompt: And for COc1cccc(/C=N/NC(=O)CSc2nnc(C)n2-c2ccccc2)c1O ?
Response: 31.6 µM (inconclusive)

Prompt: Subsequent entry: O=C(OCc1ccccc1)/C(=C/c1ccc(Cl)cc1)NC(=O)c1ccccc1Cl
Response: 0.316 µM (inconclusive)

Prompt: Next up: COc1ccccc1OCCOc1ccc(/C=C2/C(=N)N3OC(C)=CC3=NC2=O)cc1OC
Response: 2 µM (inconclusive)

Prompt: Another molecule to look at: COc1ccc2[nH]cc(CCNc3cc(-c4ccc(C(=O)N(C)C)cc4)ncn3)c2c1
Response: 39.8 µM (inconclusive)

Prompt: What would you report for O=C(Nc1ccccc1)N1CCCC(c2nc(-c3ccc(F)cc3)no2)C1 (stereo not given) ?
Response: 39.8 µM (inconclusive)

Prompt: Likewise for COC(=O)[C@@]1(Cc2ccc(F)cc2)[C@H]2c3cc(C(=O)N(C)C)n(Cc4ccc(Cl)c(C(F)(F)F)c4)c3C[C@H]2CN1C(=O)c1ccccc1 ?
Response: 5.01 µM (inconclusive)

Prompt: Please give the result for CN(C)CCCN1c2ccc(O)cc2Sc2ccc(Cl)cc21 [7-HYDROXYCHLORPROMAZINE] too.
Response: 0.794 µM (inconclusive)

Prompt: How about CC(C)c1ccccc1[S+]([O-])c1ccccc1C(C)(C)O (stereo not given) ?
Response: 3.16 µM (inconclusive)

Prompt: Try this molecule too: COc1ccc(-c2cc(C(=O)Nc3cnn(Cc4ccccc4C)c3)no2)cc1OC
Response: 25.1 µM (inconclusive)

Prompt: Ok, now COc1cccc(/C=N/NC(=O)c2nc(-c3ccccc3)cc(-c3ccccc3)n2)c1
Response: 0.794 µM (inconclusive)

Prompt: Then C1=Cc2ccccc2C1.C=C(C)c1ccccc1.[N-]=[N+]=Nc1ccccc1 ?
Response: 3.16 µM (inconclusive)

Prompt: Further, for Cc1cccc(-c2noc(-c3cc4ccccc4oc3=O)n2)c1 ?
Response: 0.562 µM (inconclusive)

Prompt: Now the same for CN(C)CCNc1ncnc2c1sc1nc(N3CCOCC3)c3c(c12)CC(C)(C)SC3
Response: 31.6 µM (inconclusive)

Prompt: Another molecule: C=C(C)[C@H]1CC=C(C)/C(=N/NC(=O)CNc2ccccc2OC)C1
Response: 11.2 µM (inconclusive)

Prompt: Would you kindly repeat that for COc1ccc(NC(=O)CSc2nnc(CNC(=O)c3ccco3)n2-c2ccccc2OC)cc1 ?
Response: 3.98 µM (inconclusive)
